Source: ChEMBL document CHEMBL4425153

# Test system: Nonstructural protein 5A (Hepatitis C virus), Q5L478 [Y93H]
# Sequence (Q5L478 entry or part of it Y93H): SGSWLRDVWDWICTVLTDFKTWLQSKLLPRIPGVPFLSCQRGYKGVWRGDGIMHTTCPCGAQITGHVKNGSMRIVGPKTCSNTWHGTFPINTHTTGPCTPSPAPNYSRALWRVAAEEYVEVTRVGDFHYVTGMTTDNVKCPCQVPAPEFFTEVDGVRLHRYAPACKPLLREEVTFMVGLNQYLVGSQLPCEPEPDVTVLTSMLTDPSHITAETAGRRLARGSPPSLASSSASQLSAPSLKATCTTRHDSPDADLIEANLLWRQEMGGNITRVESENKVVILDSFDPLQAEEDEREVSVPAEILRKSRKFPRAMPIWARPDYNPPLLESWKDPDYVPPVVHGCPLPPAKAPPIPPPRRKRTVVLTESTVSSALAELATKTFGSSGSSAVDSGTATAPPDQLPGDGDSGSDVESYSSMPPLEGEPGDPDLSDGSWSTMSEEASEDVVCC
# EXPERIMENT_SUMMARY: Inhibition of HCV genotype 1a NS5A Y93H mutant assessed as reduction in viral RNA level by cell based real time PCR method
# EXPERIMENTAL_PARAMETERS: Hepatitis C virus subtype 1a
# note: exactly 30 nM is not below, so it is rule not met; use rule met for EC90 strictly under it

- STRUCTURE_NOTATION: "COC(=O)N[C@H](C(=O)N1CCC[C@H]1c1ncc(-c2ccc3c(c2)O[C@@H](c2ccccc2)n2c-3cc3cc(-c4cnc([C@@H]5CCCN5C(=O)[C@@H](NC(=O)OC)C5CCOCC5)[nH]4)ccc32)[nH]1)C(C)C"
  TESTED_TARGET: "Nonstructural protein 5A (Hepatitis C virus), Q5L478 [Y93H]"
  CATEGORY_LABEL: "rule met"
- STRUCTURE_NOTATION: "COC(=O)N[C@H](C(=O)N1CCC[C@H]1c1nc(-c2ccc3c(c2)O[C@@H](c2ccccc2)n2c-3cc3cc(-c4c[nH]c([C@@H]5CCCN5C(=O)[C@@H](NC(=O)OC)C(C)C)n4)ccc32)c[nH]1)C(C)C"
  TESTED_TARGET: "Nonstructural protein 5A (Hepatitis C virus), Q5L478 [Y93H]"
  CATEGORY_LABEL: "rule met"
- STRUCTURE_NOTATION: "COC(=O)N[C@H](C(=O)N1CCC[C@H]1c1ncc(-c2ccc3c(c2)O[C@@H](c2ccccc2)n2c-3cc3cc(-c4cnc([C@@H]5CCCN5C(=O)C5(NC(=O)OC)CCCCC5)[nH]4)ccc32)[nH]1)C(C)C"
  TESTED_TARGET: "Nonstructural protein 5A (Hepatitis C virus), Q5L478 [Y93H]"
  CATEGORY_LABEL: "rule not met"
- STRUCTURE_NOTATION: "O=C([C@H]1CCCO1)N1CCC[C@H]1c1ncc(-c2ccc3c(c2)O[C@@H](c2ccccc2)n2c-3cc3cc(-c4cnc([C@@H]5CCCN5C(=O)[C@H]5CCCO5)[nH]4)ccc32)[nH]1"
  TESTED_TARGET: "Nonstructural protein 5A (Hepatitis C virus), Q5L478 [Y93H]"
  CATEGORY_LABEL: "rule not met"
- STRUCTURE_NOTATION: "COC(=O)N[C@H](C(=O)N1CCC[C@H]1c1ncc(-c2ccc3c(c2)cc2n3[C@H](c3ccccc3)Oc3cc(-c4cnc([C@@H]5CCCN5C(=O)[C@@H](NC(=O)OC)[C@@H](C)OC)[nH]4)ccc3-2)[nH]1)C(C)C"
  TESTED_TARGET: "Nonstructural protein 5A (Hepatitis C virus), Q5L478 [Y93H]"
  CATEGORY_LABEL: "rule not met"
- STRUCTURE_NOTATION: "COC(=O)N[C@H](C(=O)N1CCC[C@H]1c1ncc(-c2ccc3c(c2)O[C@@H](c2ccccc2)n2c-3cc3cc(-c4cnc([C@@H]5CCCN5C(=O)[C@@H](NC(=O)OC)C5CCC(F)(F)CC5)[nH]4)ccc32)[nH]1)C(C)C"
  TESTED_TARGET: "Nonstructural protein 5A (Hepatitis C virus), Q5L478 [Y93H]"
  CATEGORY_LABEL: "rule not met"
- STRUCTURE_NOTATION: "COC(=O)N[C@H](C(=O)N1CCC[C@H]1c1ncc(-c2ccc3c(c2)O[C@@H](c2ccccc2)n2c-3cc3cc(-c4cnc([C@@H]5CCCN5C(=O)[C@@H](NC(=O)OC)C5CC5)[nH]4)ccc32)[nH]1)C1CC1"
  TESTED_TARGET: "Nonstructural protein 5A (Hepatitis C virus), Q5L478 [Y93H]"
  CATEGORY_LABEL: "rule not met"
- STRUCTURE_NOTATION: "COC(=O)N[C@H](C(=O)N1CCC[C@H]1c1ncc(-c2ccc3c(c2)O[C@@H](c2ccccc2)n2c-3cc3cc(-c4cnc([C@@H]5CCCN5C(=O)[C@@H](NC(=O)OC)C5CCOCC5)[nH]4)ccc32)[nH]1)C1CCOCC1"
  TESTED_TARGET: "Nonstructural protein 5A (Hepatitis C virus), Q5L478 [Y93H]"
  CATEGORY_LABEL: "rule met"
- STRUCTURE_NOTATION: "O=C([C@@H](c1ccccc1)N1CCCC1)N1CCC[C@H]1c1ncc(-c2ccc3c(c2)O[C@@H](c2ccccc2)n2c-3cc3cc(-c4cnc([C@@H]5CCCN5C(=O)[C@@H](c5ccccc5)N5CCCC5)[nH]4)ccc32)[nH]1"
  TESTED_TARGET: "Nonstructural protein 5A (Hepatitis C virus), Q5L478 [Y93H]"
  CATEGORY_LABEL: "rule not met"
